- TARGET OR TEST SYSTEM: hGLP-1R (Homo sapiens)
- Sequence (P43220 24-463): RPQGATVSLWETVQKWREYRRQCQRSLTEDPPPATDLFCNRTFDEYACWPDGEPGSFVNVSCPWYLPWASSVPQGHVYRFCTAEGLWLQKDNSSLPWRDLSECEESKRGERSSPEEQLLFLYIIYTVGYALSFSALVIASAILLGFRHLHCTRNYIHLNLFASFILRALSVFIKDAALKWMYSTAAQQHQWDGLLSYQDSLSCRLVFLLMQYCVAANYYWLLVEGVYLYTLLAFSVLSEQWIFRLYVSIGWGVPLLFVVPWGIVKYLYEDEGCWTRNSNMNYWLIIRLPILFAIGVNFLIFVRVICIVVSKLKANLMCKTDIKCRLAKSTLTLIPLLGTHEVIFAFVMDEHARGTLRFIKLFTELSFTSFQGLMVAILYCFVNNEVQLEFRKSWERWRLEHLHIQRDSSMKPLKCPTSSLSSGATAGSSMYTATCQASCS
- ASSAY COMMENT: Functional cAMP activation in the presence of 0.1% casein (no HSA);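 note: intracellular cAMP rise after 30 min at 37 °C read by HTRF, normalized between buffer only (0%) and maximal control ligand (100%), four-parameter variable-slope fit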
- Type: cell-based
- ASSAY SETUP: in the presence of 0.1% casein (no HSA); geometric mean; read-out: Relative cAMP EC50, hGLP-1R
Starred links: 1 amine or outer side, 2 acyl side, 3 side chain; linkers in the order of their positions; H or OH if unused. Non-standard residues stand in square brackets, D forms with d. Groups on a side chain read outwards from the residue. No end group written: not given here. *: point of attachment. C20 diacid = O=C(O)CCCCCCCCCCCCCCCCCCC(=O)*; C18 diacid = O=C(O)CCCCCCCCCCCCCCCCC(=O)*; αMePhe(2-F) = C[C@](N)(Cc1ccccc1F)C(=O)O; γGlu = O=C(O)[C@H](CCC(=O)[*:2])N[*:1]; NMeY = CN[C@@H](Cc1ccc(O)cc1)C(=O)O; αMe4Pal = C[C@](N)(Cc1ccncc1)C(=O)O; αMeY = C[C@](N)(Cc1ccc(O)cc1)C(=O)O; αMeF = C[C@](N)(Cc1ccccc1)C(=O)O; 4Pal = N[C@@H](Cc1ccncc1)C(=O)O; αMeL = CC(C)C[C@](C)(N)C(=O)O; αMeS = C[C@](N)(CO)C(=O)O; Orn = NCCC[C@H](N)C(=O)O; AEEA = NCCOCCOCC(=O)O; Aib = CC(C)(N)C(=O)O
OBSERVED PROPERTY: log10 EC50 (log10 of the value in nM)
Scale: decimal log of EC50, EC50 in nM.

H-Y[Aib]QGTFTSD[4Pal]S[Orn][αMeL]LD[Orn]K([γGlu-γGlu-C18 diacid])AQ[αMe4Pal]AFIEYLIAGGPSSGEPPPSGTE-NH2 [Example 984]; 0.32
H-Y[Aib]QGTFTSD[4Pal]SR[αMeL]LDKK([AEEA-γGlu-C18 diacid])AQ[αMe4Pal]AFIE[αMe4Pal]LIEGGPSSGAPPPSGSEE-NH2 [Example 956]; 0.68
H-Y[Aib]QGTFTSDFS[Orn][αMeL]LDKK([AEEA-γGlu-C18 diacid])AQ[Aib]AFIEYLIE[Aib]GESSGAPPPSGE-NH2 [Example 219]; -0.08

// query Form field - read-out: log10 EC50; system: hGLP-1R (Homo sapiens); submitted item: H-Y[Aib]QGTFTSDFS[Orn][αMeL]LDKK([AEEA-γGlu-C18 diacid])AQ[Aib]AFIEWLLEGGHSSGAPPPEGS-NH2 [Example 126]
// result 0.60

// query Form field - read-out: log10 EC50; system: hGLP-1R (Homo sapiens); submitted item: H-Y[Aib]QGTFTSDFS[Orn][αMeL]LDKK([AEEA-γGlu-C18 diacid])AQ[Aib]AFIEYLLEGGHSSGAPPPGGS-NH2 [Example 162]
// result 0.67

// query Form field - read-out: log10 EC50; system: hGLP-1R (Homo sapiens); submitted item: H-Y[Aib]QGTFTSDFS[Orn][αMeL]LDKK([AEEA-AEEA-γGlu-C18 diacid])AQ[Aib]AFIEYLLE[dA]GPSSGHPPPSG[4Pal]-NH2 [Example 256]
// result 0.46

// query Form field - read-out: log10 EC50; system: hGLP-1R (Homo sapiens); submitted item: H-[NMeY][Aib]QGT[αMeF]TSDYSSLLDKIAAK([AEEA-AEEA-γGlu-C20 diacid])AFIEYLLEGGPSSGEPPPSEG-NH2 [Example 297]
// result 0.47

// query Form field - read-out: log10 EC50; system: hGLP-1R (Homo sapiens); submitted item: H-Y[Aib]QGTFTSD[4Pal]S[Orn][αMeL]LDKK([γGlu-γGlu-C18 diacid])AQ[Aib]AFIE[αMeY]LIEGGPSSGAPPPSGS-NH2 [Example 941]
// result -0.12

// query Form field - read-out: log10 EC50; system: hGLP-1R (Homo sapiens); submitted item: H-Y[Aib]QGT[αMePhe(2-F)]TSD[4Pal][αMeS]I[αMeL]LD[Orn]K([AEEA-γGlu-C18 diacid])AQ[αMe4Pal]EFI[dE][αMeY]LIEGGPSSGEPPPTGE-NH2 [Example 1143]
// result -0.42

// query Form field - read-out: log10 EC50; system: hGLP-1R (Homo sapiens); submitted item: H-Y[Aib]QGTFTSDFSK[αMeL]LDKK([AEEA-γGlu-C20 diacid])AQ[Aib]AFIEYLLAGGPSSGEPPPSSG-NH2 [Example 7]
// result 0.32

// query Form field - read-out: log10 EC50; system: hGLP-1R (Homo sapiens); submitted item: H-Y[Aib]QGTFTSD[4Pal]SQ[αMeL]LDKK([γGlu-γGlu-C18 diacid])AQ[αMe4Pal]AFIEYLIE[Aib]GPSSGAPPPSGSEE-NH2 [Example 899]
// result 0.61

// query Form field - read-out: log10 EC50; system: hGLP-1R (Homo sapiens); submitted item: Y[Aib]QGTFTSD[4Pal]S[Orn][αMeL]LD[Orn]K([γGlu-γGlu-C18 diacid])AQ[αMe4Pal]AFIEYLIAGGPSSGAPPPSGSE-NH2 [Example 1011]
// result 0.33
